read-out: Interleukin-6 (IL6), IL6 (gene 3569); assay: BSK_CASM3C_IL6: BioMAP Diversity Plus: CASM3C Assay for Interleukin-6 (IL6) Biomarker Activity for (AID 2283040); conditions: primary human coronary artery smooth muscle cells; actives raise or lower the signal
The source made the active and inactive calls. How the source made its calls: active means hit-call score of the fitted dose curve at least 0.9, where 1 is the maximum; inactive means score below 0.9.
Use one of these outcomes when replying: True (active), False (inactive)

These solved cases illustrate the format of a correct answer.
**Query** Which outcome did this test record for the compound Nc1ccn([C@@H]2O[C@H](CO)[C@@H](O)[C@@H]2O)c(=O)n1 ?
**Result** False

**Query** Which outcome did this test record for the compound CCCCC(CC)C(=O)OCCOCCOCCOC(=O)C(CC)CCCC (stereo not given) ?
**Result** False

**Query** Which outcome did this test record for the compound O=C1CN(N=Cc2ccc([N+](=O)[O-])o2)C(=O)N1 ?
**Result** False

**Query** Which outcome did this test record for the compound NNC(=O)c1ccncc1 ?
**Result** False

**Query** Which outcome did this test record for the compound CCCCCCCCCCCCCCO ?
**Result** False

**Query** Which outcome did this test record for the compound O=C(O)[C@H](O)[C@@H](O)C(=O)O ?
**Result** False

**Query** Which outcome did this test record for the compound Cc1ccc(S(=O)(=O)NC(=O)NN2CCCCCC2)cc1 ?
**Result** False

**Query** Which outcome did this test record for the compound c1ccc(C(O[C@@H]2CCCN(CCc3ccc4c(c3)OCO4)C2)c2ccccc2)cc1 ?
**Result** False

---
**Query** Which outcome did this test record for the compound CCOc1ccc2[nH]cc(C(=O)NCc3ccccc3)c(=O)c2n1 ?
**Result** False

**Query** Which outcome did this test record for the compound O=C(O)c1cccc(C[C@@H]2COc3ccc(OCc4nc5cc(F)ccc5s4)cc3[C@@H]2O)c1 ?
**Result** False

**Query** Which outcome did this test record for the compound O=S(=O)(O)CCC(F)(F)C(F)(F)C(F)(F)C(F)(F)C(F)(F)C(F)(F)F ?
**Result** False

**Query** Which outcome did this test record for the compound Cn1c(=O)c2[nH]cnc2n(C)c1=O ?
**Result** False

**Query** Which outcome did this test record for the compound c1ccc2c(c1)-c1cccc3c1c-2cc1ccccc13 ?
**Result** False

**Query** Which outcome did this test record for the compound NC(=O)N1c2ccccc2C=Cc2ccccc21 ?
**Result** False

**Query** Which outcome did this test record for the compound CCCC(CCC)C(=O)O ?
**Result** False

**Query** Which outcome did this test record for the compound C[C@]12C=CC(=O)C=C1CC[C@H]1[C@@H]3C[C@@H](O)[C@](O)(C(=O)CO)[C@@]3(C)C[C@H](O)[C@@]12F ?
**Result** True

**Query** Which outcome did this test record for the compound c1ccc2ncccc2c1 ?
**Result** False

**Query** Which outcome did this test record for the compound O=S(=O)(O)c1ccc(N=Nc2c(O)ccc3cc(S(=O)(=O)O)ccc23)cc1 ?
**Result** False

**Query** Which outcome did this test record for the compound OC[C@H]1O[C@@H]2O[C@H]3[C@H](O)[C@@H](O)[C@@H](O[C@H]4[C@H](O)[C@@H](O)[C@@H](O[C@H]5[C@H](O)[C@@H](O)[C@@H](O[C@H]6[C@H](O)[C@@H](O)[C@@H](O[C@H]7[C@H](O)[C@@H](O)[C@@H](O[C@H]1[C@H](O)[C@H]2O)O[C@@H]7CO)O[C@@H]6CO)O[C@@H]5CO)O[C@@H]4CO)O[C@@H]3CO ?
**Result** False

**Query** Which outcome did this test record for the compound O=C(NO)C1(NS(=O)(=O)c2ccc(Oc3ccc(F)cc3)cc2)CCOCC1 ?
**Result** False

**Query** Which outcome did this test record for the compound OC[C@H]1O[C@@](CO)(O[C@H]2O[C@H](CO)[C@@H](O)[C@H](O)[C@H]2O)[C@@H](O)[C@@H]1O ?
**Result** False

**Query** Which outcome did this test record for the compound O=C(O)c1cccc(C(=O)O)c1 ?
**Result** False

**Query** Which outcome did this test record for the compound CC(C)C(=O)Nc1ccc([N+](=O)[O-])c(C(F)(F)F)c1 ?
**Result** False

**Query** Which outcome did this test record for the compound CCCCCCOC(=O)CC(CC(=O)OCCCCCC)(OC(=O)CCC)C(=O)OCCCCCC ?
**Result** False

* * *

assay: CCTE_Mundy_HCI_Cortical_Synap_Neur_Matur_CellBodySpotCount: CCTE's Synaptogenesis and Neurite Maturation Assay in rat cortical cells for Cell Body Spot Count, Mundy Lab (AID 2284223)
Calls of active or inactive are those of the source. How the source made its calls: active means hit-call score of the fitted dose curve at least 0.9, where 1 is the maximum; inactive means score below 0.9.
Use one of these outcomes when replying: active, inactive

These solved cases illustrate the format of a correct answer.
**Query** Which outcome did this test record for the compound Cn1cc[nH]c1=S ?
**Result** inactive

**Query** Which outcome did this test record for the compound COc1cc2c(c(OC)c1OC)-c1ccc(OC)c(=O)cc1[C@@H](NC(C)=O)CC2 ?
**Result** active

**Query** Which outcome did this test record for the compound CCCC(CCC)C(=O)O ?
**Result** inactive

**Query** Which outcome did this test record for the compound OC(Cn1cncn1)(Cn1cncn1)c1ccc(F)cc1F ?
**Result** inactive

---
**Query** Which outcome did this test record for the compound C[C@]12C=CC(=O)C=C1CC[C@H]1[C@@H]3C[C@@H](O)[C@](O)(C(=O)CO)[C@@]3(C)C[C@H](O)[C@@]12F ?
**Result** active

* * *

read-out: matrix metalloproteinase-3 (MMP3), MMP3 (gene 4314); test: LTEA_HepaRG_MMP3: Life Technologies and Expression Analysis (LTEA) Assay for matrix metalloproteinase-3 (MMP3) using HepaRG (AID 2283519); conditions: mRNA level, 48 h; actives raise or lower the signal
Calls of active or inactive are those of the source. Rule for the calls: active = hit-call score of the fitted dose curve at least 0.9, where 1 is the maximum; inactive = score below 0.9.
Use one of these outcomes when replying: 1.0 for active, 0.0 for inactive

These solved cases illustrate the format of a correct answer.
**Query** Which outcome did this test record for the compound O=C(O)[C@H](O)[C@@H](O)C(=O)O ?
**Result** 0.0

**Query** Which outcome did this test record for the compound C=CCc1cc(S(=O)(=O)c2ccc(O)c(CC=C)c2)ccc1O ?
**Result** 1.0

**Query** Which outcome did this test record for the compound COc1cc(C(C)C)c2c(c1)S(=O)(=O)N(COc1cc(=O)n3cccc(OCCN4CCCCC4)c3n1)C2=O ?
**Result** 1.0

**Query** Which outcome did this test record for the compound CCCCC(CC)C(=O)OCCOCCOCCOC(=O)C(CC)CCCC (stereo not drawn) ?
**Result** 0.0

**Query** Which outcome did this test record for the compound COc1cc2c(c(OC)c1OC)-c1ccc(OC)c(=O)cc1[C@@H](NC(C)=O)CC2 ?
**Result** 1.0

**Query** Which outcome did this test record for the compound COCc1nnc(-c2ccc[n+]([O-])c2)n1-c1c(Cl)c(Cl)cc2[nH]c(=O)c(=O)[nH]c12 ?
**Result** 0.0

**Query** Which outcome did this test record for the compound Cn1cc[nH]c1=S ?
**Result** 0.0

Please examine the following record next.
**Query** Which outcome did this test record for the compound COS(C)(=O)=O ?
**Result** 0.0

* * *

experiment: STM_H9_OrnithineISnorm_perc: Stemina devTOX quickPredict H9 human embryonic stem cell (hESC)-based Assay for Ornithine (ORN) Metabolite Biomarker, Normalized (AID 2283712);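 further: ornithine released into spent medium during last day measured by mass spectrometry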
Calls of active or inactive are those of the source. The calls were made as follows: active = hit-call score of the fitted dose curve at least 0.9, where 1 is the maximum; inactive = score below 0.9.
Use one of these outcomes when replying: 1 = active, 0 = inactive

**Query** Which outcome did this test record for the molecule O=S1(=O)CCCO1 ?
**Result** 0

**Query** Which outcome did this test record for the molecule CC(C)C(=O)Nc1ccc([N+](=O)[O-])c(C(F)(F)F)c1 ?
**Result** 1

**Query** Which outcome did this test record for the molecule CC[C@H](C)C(=O)O[C@H]1C[C@H](O)C=C2C=C[C@H](C)[C@H](CC[C@@H](O)C[C@@H](O)CC(=O)O)[C@H]21 ?
**Result** 0

---
**Query** Which outcome did this test record for the molecule Cc1nc(-c2ccccn2)ncc1C(=O)Nn1cc(C)c2cc(F)ccc21 ?
**Result** 0

**Query** Which outcome did this test record for the molecule NC(=O)NN=Cc1ccc([N+](=O)[O-])o1 ?
**Result** 0

**Query** Which outcome did this test record for the molecule Nc1ccn([C@@H]2O[C@H](CO)[C@@H](O)[C@@H]2O)c(=O)n1 ?
**Result** 1

* * *

read-out: Macrophage colony-stimulating factor (MCSF), CSF1 (gene 1435); experiment: BSK_CASM3C_MCSF: BioMAP Diversity Plus: CASM3C Assay for Macrophage colony-stimulating factor (MCSF) Biomarker Activity (AID 2283044); conditions: primary human coronary artery smooth muscle cells; actives raise or lower the signal;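 further: M-CSF protein amount quantified by ELISA after 24 h exposure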
The source made the active and inactive calls. The calls were made as follows: active = hit-call score of the fitted dose curve at least 0.9, where 1 is the maximum; inactive = score below 0.9.
Use one of these outcomes when replying: active, inactive

These solved cases illustrate the format of a correct answer.
**Query** Which outcome did this test record for the molecule CCCC(CCC)C(=O)O ?
**Result** inactive

**Query** Which outcome did this test record for the molecule NCC(F)(F)C(F)(F)C(F)(F)C(F)(F)F ?
**Result** inactive

**Query** Which outcome did this test record for the molecule NNC(=O)c1ccncc1 ?
**Result** inactive

**Query** Which outcome did this test record for the molecule c1ccc2c(c1)-c1cccc3c1c-2cc1ccccc13 ?
**Result** inactive

**Query** Which outcome did this test record for the molecule C=CCc1cc(S(=O)(=O)c2ccc(O)c(CC=C)c2)ccc1O ?
**Result** active

**Query** Which outcome did this test record for the molecule OC[C@H]1O[C@@H]2O[C@H]3[C@H](O)[C@@H](O)[C@@H](O[C@H]4[C@H](O)[C@@H](O)[C@@H](O[C@H]5[C@H](O)[C@@H](O)[C@@H](O[C@H]6[C@H](O)[C@@H](O)[C@@H](O[C@H]7[C@H](O)[C@@H](O)[C@@H](O[C@H]1[C@H](O)[C@H]2O)O[C@@H]7CO)O[C@@H]6CO)O[C@@H]5CO)O[C@@H]4CO)O[C@@H]3CO ?
**Result** inactive

**Query** Which outcome did this test record for the molecule COc1cc2c(c(OC)c1OC)-c1ccc(OC)c(=O)cc1[C@@H](NC(C)=O)CC2 ?
**Result** inactive

**Query** Which outcome did this test record for the molecule Cn1cc[nH]c1=S ?
**Result** inactive

---
**Query** Which outcome did this test record for the molecule COCc1nnc(-c2ccc[n+]([O-])c2)n1-c1c(Cl)c(Cl)cc2[nH]c(=O)c(=O)[nH]c12 ?
**Result** inactive
